Below, each entry is listed alongside its reported Fold change (BMP-2).
- Tested on: BMP-2
- Experiment notes: BMP-2 fold change of JHU library compounds, confirmed by qPCR
- Format: cell-based, human
- Assay conditions: JHU library compounds; non-treated = 1.00
- Excerpt: To further verify the technique, a 2T3 mouse pre-osteoblast cell line derived from calvaria courtesy of Dr. Steve Harris, UTHSCSA, was utilized to visually screen the compounds of the BIOMOL library and JHU libraries, purchased from John Hopkins University including 2387 compounds (solution in wells). Specifically, Murine 2T3 were thawed from one frozen cryovial and re-seeded into two T-75 tissue culture flasks grown in Alpha MEM with 10% FBS, Glutamine, and Pen/Strip antibiotics. […]
Structures can show the parent of a compound that is named as a salt.
The reply should be a number in fold, with the unit left off.

>  <Molecule>
C[C@@H]1C[C@@H]([C@H](O)CC2CC(=O)NC(=O)C2)C(=O)[C@@H](C)C1 [Cycloheximide]

>  <Recorded measurement>
34.00

$$$$
>  <Molecule>
CC[C@]1(O)C[C@@H]2CN(CCc3c([nH]c4ccccc34)[C@@](C(=O)OC)(c3cc4c(cc3OC)N(C)[C@H]3[C@@](O)(C(=O)OC)[C@H](OC(C)=O)[C@]5(CC)C=CCN6CC[C@]43[C@@H]65)C2)C1 [Vinblastine sulfate]

>  <Recorded measurement>
64.00

$$$$
>  <Molecule>
C=C(NC(=O)C(=C)NC(=O)c1csc(C2=N[C@@H]3c4csc(n4)[C@H]4NC(=O)c5csc(n5)[C@H]([C@](C)(O)[C@@H](C)O)NC(=O)[C@H]5CSC(=N5)/C(=C/C)NC(=O)[C@H]([C@@H](C)O)NC(=O)c5csc(n5)[C@]3(CC2)NC(=O)[C@H](C)NC(=O)C(=C)NC(=O)[C@H](C)NC(=O)[C@H]([C@@H](C)CC)N[C@@H]2C=Cc3c([C@H](C)O)cc(nc3[C@H]2O)C(=O)O[C@@H]4C)n1)C(N)=O [Thiostrepton]

>  <Recorded measurement>
5.00

$$$$
>  <Molecule>
CC(=O)[O-].CC(=O)[O-].[Cd+2] [Cadmium Acetate]

>  <Recorded measurement>
8.00

$$$$
>  <Molecule>
CC(C)(C)CC(C)(C)c1ccc(O)c(Cc2ccc(Cl)cc2Cl)c1 [Clofoctol]

>  <Recorded measurement>
11.00

$$$$

# evaluate next
Incoming: Print BMP-2 Fold change (BMP-2) for COC(=O)c1ccc(O)c2nc3c(C=O)c(O)cc(O)c3nc12 [Lomofungin] .
Outgoing: 26.00
